Assay: Solubility in water
Format: physicochemical
RECORDED ENDPOINT: solubility

Request: Consider the compound "CCCCCN1C=Nc2cccc3nc4c(c1c23)Cn1c-4cc2c(c1=O)COC(=O)[C@@]2(CC)OC(=O)CN(C)C(=O)CN.Cl" . State its measured solubility.
Result: > 10000 µg/mL

###

Experiment: Stability of compound in pH 2 phosphate buffer at room temperature assessed as prodrug remaining after conversion into active drug CH0793076 after 3 hrs
Assay type: physicochemical
Settings: pH 2, 3 h
Each item that follows carries a reported Stability.
Could you give the number and then its unit, please?

Worked examples, 3 compounds total:
{"columns": ["SMILES ENTRY", "Stability"],
 "data": [
  ["CCCCCN1C=Nc2cccc3nc4c(c1c23)Cn1c-4cc2c(c1=O)COC(=O)[C@@]2(CC)OC(=O)CN(C)C(=O)CN.Cl", "100%"],
  ["CCCCCN1C=Nc2cccc3nc4c(c1c23)Cn1c-4cc2c(c1=O)COC(=O)[C@@]2(CC)OC(=O)OCCS(=O)(=O)CCN.Cl", "100%"],
  ["CCCCCN1C=Nc2cccc3nc4c(c1c23)Cn1c-4cc2c(c1=O)COC(=O)[C@@]2(CC)OC(=O)[C@H](C)N(C)C(=O)CN.Cl", "99%"]
]}

Request: Consider the compound "CCCCCN1C=Nc2cccc3nc4c(c1c23)Cn1c-4cc2c(c1=O)COC(=O)[C@@]2(CC)OC(=O)CNC(=O)CNC.Cl" . State its measured Stability.
Result: 100%

Request: Consider the compound "CCCCCN1C=Nc2cccc3nc4c(c1c23)Cn1c-4cc2c(c1=O)COC(=O)[C@@]2(CC)OC(=O)OCCS(=O)(=O)C[C@H](N)C(=O)OCC.Cl" . State its measured Stability.
Result: 100%

Request: Consider the compound "CCCCCN1C=Nc2cccc3nc4c(c1c23)Cn1c-4cc2c(c1=O)COC(=O)[C@@]2(CC)OC(=O)CN(C)C(=O)C(C)(C)N.Cl" . State its measured Stability.
Result: 78%

Request: Consider the compound "CCCCCN1C=Nc2cccc3nc4c(c1c23)Cn1c-4cc2c(c1=O)COC(=O)[C@@]2(CC)OC(=O)CN(C)C(=O)CNC.Cl" . State its measured Stability.
Result: 95%

###

Assay: Toxicity in mouse administered as bolus iv injection once per week for 3 weeks
Format: organism-based
Settings: in vivo
RECORDED ENDPOINT: MTD at 504 h
Could you give the number and then its unit, please?

Request: Consider the molecule "CCCCCN1C=Nc2cccc3nc4c(c1c23)Cn1c-4cc2c(c1=O)COC(=O)[C@@]2(CC)OC(=O)CN(C)C(=O)CN.Cl" . State its measured MTD at 504 h.
Result: 47 mg/kg

###

Assay: Stability of compound in pH 5 phosphate buffer at room temperature assessed as prodrug remaining after conversion into active drug CH0793076 after 3 hrs
Format: physicochemical
Details: pH 5, 3 h
RECORDED ENDPOINT: Stability (%)
Could you give me the number in %? Just the number is fine.

Worked examples, 7 compounds total:
{"columns": ["SMILES ENTRY", "UNIT OF MEASUREMENT", "Stability"],
 "data": [
  ["CCCCCN1C=Nc2cccc3nc4c(c1c23)Cn1c-4cc2c(c1=O)COC(=O)[C@@]2(CC)OC(=O)CNC(=O)CN.Cl", "%", 100],
  ["CCCCCN1C=Nc2cccc3nc4c(c1c23)Cn1c-4cc2c(c1=O)COC(=O)[C@@]2(CC)OC(=O)[C@H](C)N(C)C(=O)CN.Cl", "%", 47],
  ["CCCCCN1C=Nc2cccc3nc4c(c1c23)Cn1c-4cc2c(c1=O)COC(=O)[C@@]2(CC)OC(=O)OCCS(=O)(=O)CCN.Cl", "%", 96],
  ["CCCCCN1C=Nc2cccc3nc4c(c1c23)Cn1c-4cc2c(c1=O)COC(=O)[C@@]2(CC)OC(=O)CN(C)C(=O)C(C)(C)N.Cl", "%", 0],
  ["CCCCCN1C=Nc2cccc3nc4c(c1c23)Cn1c-4cc2c(c1=O)COC(=O)[C@@]2(CC)OC(=O)CNC(=O)CNC.Cl", "%", 100],
  ["CCCCCN1C=Nc2cccc3nc4c(c1c23)Cn1c-4cc2c(c1=O)COC(=O)[C@@]2(CC)OC(=O)CN(C)C(=O)CNC.Cl", "%", 83],
  ["CCCCCN1C=Nc2cccc3nc4c(c1c23)Cn1c-4cc2c(c1=O)COC(=O)[C@@]2(CC)OC(=O)OCCS(=O)(=O)C[C@H](N)C(=O)OCC.Cl", "%", 68]
]}

Request: Consider the compound "CCCCCN1C=Nc2cccc3nc4c(c1c23)Cn1c-4cc2c(c1=O)COC(=O)[C@@]2(CC)OC(=O)CN(C)C(=O)CN.Cl" . State its measured Stability.
Result: 83
